Study the reported pIC50 values for 72 kDa type IV collagenase (Homo sapiens, UniProt P08253) given below; they originate from different publications.
pIC50 (log units): -log10 of the concentration in mol/L.

Entry `CNC(=O)[C@@H](CC(=O)[C@H](CC(C)C)[C@H](CSc1ccccc1)C(=O)NO)Cc1ccccc1` : pIC50 on 72 kDa type IV collagenase (Homo sapiens, UniProt P08253) = 6.70

Entry `O=C(O)[C@@H]1[C@@H](Cn2nnc3ccccc3c2=O)CC[C@H]1Sc1ccc(-c2ccc(Cl)cc2)cc1` : pIC50 on 72 kDa type IV collagenase (Homo sapiens, UniProt P08253) = 6.13

Entry `Cc1cccc(N2CCN(C(=O)[C@H]3NCC4(CC4)C[C@@H]3C(=O)NO)CC2)c1` : pIC50 on 72 kDa type IV collagenase (Homo sapiens, UniProt P08253) = 7.20
